The origin of these recorded values is patent US20190016826A1.

- measurement.target: T1, Full length murine HtrA1 (MuHtrA1) (P24-P480), N-terminal His6 tag (murine, UniProt Q9R118 24-480)
- T1 construct: Expressed in insect cells
- T1 sequence (Q9R118 other isoform, or with tags, fused parts or gaps): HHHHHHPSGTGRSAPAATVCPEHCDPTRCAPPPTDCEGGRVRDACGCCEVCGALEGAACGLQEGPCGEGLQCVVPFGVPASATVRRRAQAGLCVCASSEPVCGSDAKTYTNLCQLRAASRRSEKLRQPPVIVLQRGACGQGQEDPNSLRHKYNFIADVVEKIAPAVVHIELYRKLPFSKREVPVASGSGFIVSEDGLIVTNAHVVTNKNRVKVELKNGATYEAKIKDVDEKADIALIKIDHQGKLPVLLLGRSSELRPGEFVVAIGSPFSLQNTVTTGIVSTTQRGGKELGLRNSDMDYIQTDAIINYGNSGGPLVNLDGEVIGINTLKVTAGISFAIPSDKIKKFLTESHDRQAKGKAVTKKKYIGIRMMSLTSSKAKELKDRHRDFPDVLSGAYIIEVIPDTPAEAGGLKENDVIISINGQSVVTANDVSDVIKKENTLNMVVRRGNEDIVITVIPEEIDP
- assay.notes: SPR (BIAcore T100), single-cycle kinetics, biotinylated murine HtrA1 captured on streptavidin, Fab in solution
observation.type: pKd
Value format note: pKd is -log10 of concentration (mol/L); just state the number.

[in] GET /values?readout=pKd&item= YW505.94a.54 Fab (Fab, V domains shown) VH: EVQLVESGGGLVQPGGSLRLSCAASGFSISGYYIHWVRQAPGKGLEWVGWIDPYGGDTNYADSVKGRFTISADTSKNTAYLQMNSLRAEDTAVYYCARGTFLTSWGHYFDYWGQGT VL: DIQMTQSPSSLSASVGDRVTITCRASQVVGNYLAWYQQKPGKAPKLLIYSASFLYSGVPSRFSGSGSGTDFTLTISSLQPEDFATYYCQQSDDHPPTFGQGTKVEIKR
[out] 8.80

[in] Then what about the binder Fab94 (anti-HtrA1 antibody YW505.94, Fab format) (Fab, V domains shown) VH: EVQLVESGGGLVQPGGSLRLSCAASGFNISGYYIHWVRQAPGKGLEWVGWIDPYGGDTNYADSVKGRFTISADTSKNTAYLQMNSLRAEDTAVYYCARGTFLTSWGHYFDYWGQGT VL: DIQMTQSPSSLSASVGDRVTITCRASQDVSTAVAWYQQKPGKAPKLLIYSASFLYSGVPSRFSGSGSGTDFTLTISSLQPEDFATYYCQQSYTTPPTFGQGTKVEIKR ?
[out] 7.54

[in] Then what about the binder YW505.94a.28 Fab (Fab, V domains shown) VH: EVQLVESGGGLVQPGGSLRLSCAASGFSISGYYIHWVRQAPGKGLEWVGWIDPYGGDTNYADSVKGRFTISADTSKNTAYLQMNSLRAEDTAVYYCARGTFLTSWGHYFDYWGQGT VL: DIQMTQSPSSLSASVGDRVTITCRASQSINTYLAWYQQKPGKAPKLLIYSASFLYSGVPSRFSGSGSGTDFTLTISSLQPEDFATYYCQQSDDTPPTFGQGTKVEIKR ?
[out] 8.34

[in] Then what about the binder YW505.94a Fab (Fab, V domains shown, Tested as Fab) VH: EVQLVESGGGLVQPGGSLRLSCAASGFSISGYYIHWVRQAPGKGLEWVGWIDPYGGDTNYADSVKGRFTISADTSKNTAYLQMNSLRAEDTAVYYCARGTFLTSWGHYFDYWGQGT VL: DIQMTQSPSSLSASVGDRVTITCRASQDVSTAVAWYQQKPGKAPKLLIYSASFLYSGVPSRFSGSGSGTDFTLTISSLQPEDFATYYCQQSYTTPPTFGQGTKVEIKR ?
[out] 7.24
